These data points were gathered from patent US20230117034A1.

# assayed-system: CDK12 (nuclear staining in CAL-120 cells) (Homo sapiens, UniProt Q9NYV4)
# Construct: endogenous in cells; host or cells: CAL-120 human breast cancer cells (DSMZ ACC 459)
# Sequence (Q9NYV4 whole entry): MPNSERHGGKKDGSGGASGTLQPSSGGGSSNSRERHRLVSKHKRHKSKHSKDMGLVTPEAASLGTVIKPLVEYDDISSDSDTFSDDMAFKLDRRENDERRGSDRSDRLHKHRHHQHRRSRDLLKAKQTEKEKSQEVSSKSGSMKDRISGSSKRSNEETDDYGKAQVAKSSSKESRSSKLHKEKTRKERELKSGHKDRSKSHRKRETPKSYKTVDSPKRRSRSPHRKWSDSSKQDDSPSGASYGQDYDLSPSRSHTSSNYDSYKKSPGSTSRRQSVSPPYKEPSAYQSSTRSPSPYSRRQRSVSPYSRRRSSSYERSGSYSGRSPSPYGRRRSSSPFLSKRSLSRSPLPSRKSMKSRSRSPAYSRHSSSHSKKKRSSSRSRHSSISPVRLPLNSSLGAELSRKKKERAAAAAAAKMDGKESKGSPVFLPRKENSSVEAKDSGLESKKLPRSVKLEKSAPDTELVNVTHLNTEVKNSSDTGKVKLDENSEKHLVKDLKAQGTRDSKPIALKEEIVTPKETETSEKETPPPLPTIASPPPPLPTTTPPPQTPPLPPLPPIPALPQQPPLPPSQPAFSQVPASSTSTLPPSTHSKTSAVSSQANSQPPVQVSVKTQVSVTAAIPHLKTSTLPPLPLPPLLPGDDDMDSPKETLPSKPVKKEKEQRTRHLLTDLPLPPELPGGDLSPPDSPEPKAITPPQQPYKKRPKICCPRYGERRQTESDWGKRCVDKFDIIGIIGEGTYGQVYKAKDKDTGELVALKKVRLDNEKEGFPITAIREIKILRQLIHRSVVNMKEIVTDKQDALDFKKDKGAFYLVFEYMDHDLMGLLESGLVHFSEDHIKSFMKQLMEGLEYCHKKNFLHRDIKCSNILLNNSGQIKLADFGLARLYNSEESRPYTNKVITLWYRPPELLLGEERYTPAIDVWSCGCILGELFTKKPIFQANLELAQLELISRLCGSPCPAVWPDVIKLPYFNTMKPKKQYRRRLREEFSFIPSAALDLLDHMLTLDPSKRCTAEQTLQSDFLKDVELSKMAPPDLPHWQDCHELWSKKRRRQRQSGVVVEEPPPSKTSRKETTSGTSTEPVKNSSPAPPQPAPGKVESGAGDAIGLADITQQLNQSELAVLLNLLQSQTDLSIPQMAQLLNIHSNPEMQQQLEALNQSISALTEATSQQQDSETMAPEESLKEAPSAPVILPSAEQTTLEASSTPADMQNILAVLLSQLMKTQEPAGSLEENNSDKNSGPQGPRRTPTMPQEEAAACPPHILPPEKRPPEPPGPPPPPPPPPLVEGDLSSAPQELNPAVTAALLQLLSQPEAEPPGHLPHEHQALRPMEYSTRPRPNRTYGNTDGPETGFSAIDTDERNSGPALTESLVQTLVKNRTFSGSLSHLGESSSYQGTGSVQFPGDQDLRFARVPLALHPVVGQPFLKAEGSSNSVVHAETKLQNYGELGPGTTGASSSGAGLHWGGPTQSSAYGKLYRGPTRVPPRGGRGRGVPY
# Sequence (O75909 whole entry partner): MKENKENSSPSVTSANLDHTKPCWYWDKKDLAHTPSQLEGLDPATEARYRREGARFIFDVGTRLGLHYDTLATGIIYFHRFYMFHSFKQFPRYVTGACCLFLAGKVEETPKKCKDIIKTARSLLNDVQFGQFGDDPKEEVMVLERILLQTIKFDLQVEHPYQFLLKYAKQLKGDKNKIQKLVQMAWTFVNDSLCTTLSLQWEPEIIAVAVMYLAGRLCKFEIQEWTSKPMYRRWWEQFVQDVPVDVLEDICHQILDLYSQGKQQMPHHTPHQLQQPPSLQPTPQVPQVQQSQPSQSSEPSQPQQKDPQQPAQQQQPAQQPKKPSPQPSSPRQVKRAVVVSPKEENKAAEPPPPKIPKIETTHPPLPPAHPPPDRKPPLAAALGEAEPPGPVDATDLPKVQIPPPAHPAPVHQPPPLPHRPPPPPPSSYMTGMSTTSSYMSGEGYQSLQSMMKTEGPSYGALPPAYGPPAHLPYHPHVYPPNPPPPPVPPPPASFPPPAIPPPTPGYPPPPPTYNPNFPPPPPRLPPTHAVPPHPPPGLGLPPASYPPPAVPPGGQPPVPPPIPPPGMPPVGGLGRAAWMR
# method: CDK12 nuclear protein level: immunofluorescence/high content analysis (CAL-120)
# Type: cell-based
# assay-setup: CAL-120 cells, 24 h, immunofluorescence; 50% reduction of nuclear CDK12 staining intensity; median; read-out: CDK12 degradation IF, DC50- [mol/l] (median)
# Procedure: In the context of the present invention, the term “DC50 CDK12” refers to the DC50 values obtained according to the assay described in this section (7) herein below, i.e. the DC50 values for the degradation of CDK12. Plates are then incubated for 24 h at 37° C. in an humidified incubator and fixed with 4% PFA for 10 min. […] Nuclear and cytoplasmic intensity as well as the nuclear/cytoplasmic intensity ratio is determined by automated image analysis using custom generated scripts (MetaXpress). […]
recorded-endpoint: log10 of DC50 (log10 of the value in nM)
The common logarithm of DC50 in nM is what is listed.

Exercise: Sample "Fc1ccc2[nH]c(CNc3nc(N4CC5CCC(C4)N5)nc4c(C(F)(F)F)cnn34)nc2c1F" — what was its log10 of DC50?
Key: 1.24

Exercise: Sample "CC(C)c1cnn2c(NCc3nc4ccccc4[nH]3)nc(N(C)CC(C)(C)O)nc12" — what was its log10 of DC50?
Key: 1.06

Exercise: Sample "Brc1cnn2c(NCc3nc4ccncc4[nH]3)nc(N3CCOCC3)nc12" — what was its log10 of DC50?
Key: 2.00

Exercise: Sample C[C@@]1(O)CCN(c2nc(NCc3nc4ccccc4[nH]3)n3ncc(Br)c3n2)C1 (single isomer, unassigned) — what was its log10 of DC50?
Key: 1.61

Exercise: Sample "Clc1cccc(-c2cnn3c(NCc4nc5ccccc5[nH]4)nc(N4CCOCC4)nc23)c1" — what was its log10 of DC50?
Key: 1.76

Exercise: Sample "Fc1ccc2[nH]c(CNc3nc(N4CCOCC4)nc4c(-c5ccnnc5)cnn34)nc2c1F" — what was its log10 of DC50?
Key: 0.44

Exercise: Sample "Cc1cc2nc(CNc3nc(N4CCN(C)CC4)nc4c(C5CC5)cnn34)[nH]c2cc1C" — what was its log10 of DC50?
Key: 0.59

Exercise: Sample "COc1cccc2nc(CNc3nc(N4CCN(C)CC4)nc4c(-c5nccs5)cnn34)[nH]c12" — what was its log10 of DC50?
Key: 1.42
